Assay: Hygroscopicity at room temperature (weight gain and visual phase transition after 24 hours at controlled RH)
Format: physicochemical
Settings: 75% RH, room temperature, 24 hours
Method: Hygroscopicity of salts of invention were measured by placing 20-50 mg of the sample in an uncapped scintillation vial. The vial was stored at ambient temperature in a Pyrex brand desiccator (VWR, International, CT). […] The relative humidity was confirmed using a digital hygrometer pen (VWR International, CT). An empty scintillation vial was also placed in the desiccator as a control. […] Visual observation of phase transition was also noted.
Binary call on % weight gain with cut-off 6%: strictly below means criterion met, and equality or higher means criterion not met.

Example cases with answers are listed next.
Problem: Record CC(C)c1nc(CN(C)C(=O)N[C@@H](CCN2CCOCC2)C(=O)N[C@H](CC[C@H](Cc2ccccc2)NC(=O)OCc2cncs2)Cc2ccccc2)cs1.CC(O)C(=O)O [lactate] : is its % weight gain strictly below 6%?
Result: criterion met

Problem: Record O=C(O)CCC(=O)C(=O)O [ketoglutarate] : is its % weight gain strictly below 6%?
Result: criterion met

Problem: Record CC(C)c1nc(CN(C)C(=O)N[C@@H](CCN2CCOCC2)C(=O)N[C@H](CC[C@H](Cc2ccccc2)NC(=O)OCc2cncs2)Cc2ccccc2)cs1.Cl [hydrochloride] : is its % weight gain strictly below 6%?
Result: criterion not met

Problem: Record CC(C)c1nc(CN(C)C(=O)N[C@@H](CCN2CCOCC2)C(=O)N[C@H](CC[C@H](Cc2ccccc2)NC(=O)OCc2cncs2)Cc2ccccc2)cs1.O=P(O)(O)O [phosphate] : is its % weight gain strictly below 6%?
Result: criterion not met

Would you kindly look at the next entry?
Problem: Record CC(C)c1nc(CN(C)C(=O)N[C@@H](CCN2CCOCC2)C(=O)N[C@H](CC[C@H](Cc2ccccc2)NC(=O)OCc2cncs2)Cc2ccccc2)cs1 [citrate] : is its % weight gain strictly below 6%?
Result: criterion not met
